All figures here come from ChEMBL document CHEMBL3046966.

Tested on: Pyricularia oryzae
Assay: Fungicidal activity against Magnaporthe oryzae assessed as rice blast disease control at 125 ppm foliar application for 24 hr before inoculation by preventive manner
Format: functional
This section presents compounds with their documented Activity values.

Below: 2 compounds and their reported Activity.
SMILES STR | VALUE REPORTED
CNC(=O)/C(=N\OC)c1ccccc1COc1ccccn1 | <90%
CNC(=O)/C(=N/OC)c1ccccc1COc1cccnc1Cl | <90%

Would you kindly share the measured Activity for CNC(=O)/C(=N/OC)c1ccccc1COc1ccc(C(F)(F)F)c(NC)n1 ?
<90%

====

Item-by-item account of Activity
System: Blumeria graminis f. sp. tritici
Assay: Fungicidal activity against Blumeria graminis f. sp. tritici assessed as wheat powdery mildew disease control at 2 ppm foliar application for 24 hr after inoculation by curative manner
Format: functional
Supply the numeric figure in %, leaving out any unit text.

Reference set, count: 5
SMILES STR | SYSTEM NAME | Activity (%)
CNC(=O)/C(=N/OC)c1ccccc1COc1ncc(C(F)(F)F)cc1Cl | Blumeria graminis f. sp. tritici | 90
CNC(=O)/C(=N/OC)c1ccccc1COc1ncc(Cl)cc1C(F)(F)F | Blumeria graminis f. sp. tritici | 90
CNC(=O)/C(=N/OC)c1ccccc1COc1ccc(Cl)cn1 | Blumeria graminis f. sp. tritici | 90
CNC(=O)/C(=N/OC)c1ccccc1COc1nc(Cl)ccc1C(F)(F)F | Blumeria graminis f. sp. tritici | 90
CNC(=O)/C(=N/OC)c1ccccc1COc1ncccc1C(F)(F)F | Blumeria graminis f. sp. tritici | 90

Query molecule follows.
Endpoint output: Activity of CNC(=O)/C(=N/OC)c1ccccc1COc1nc(Cl)c(C(F)(F)F)cc1Cl . Value?
90
